Each item that follows carries a reported TGI.
tested on: HT29 colon; experiment: NCI tumour cell line growth inhibition, 48 h
// note: answer is a bare numeric in µM

Cc1c2ncccc2c(C)c2c1[nH]c1ccc(O)cc12 ... 32.3
c1ccc(Oc2c3ccccc3nc3ccccc23)cc1 ... 2.83
O=[N+]([O-])/C(C(Cl)=C(Cl)Cl)=C(\Nc1cccc2cccnc12)Sc1ccccc1 ... 73.6

Alright, here's another compound for you.
Find the measured TGI of N#Cc1c(-c2cccc(Br)c2)cc(-c2ccc(Cl)cc2)nc1N and report it.
39.2

* * *

system: HCC-2998 colon; test: NCI tumour cell line growth inhibition, 48 h
readout-type: TGI (µM)
// note: answer is a bare numeric in µM

Below: 4 compounds and their reported TGI.
CC(C)/C(Cl)=N/OC(NC(=O)Nc1ccc(Cl)c(Cl)c1)(C(F)(F)F)C(F)(F)F ... 36
Cc1c2[nH]c3ccc(Br)cc3c2c(C)c2[nH]ccc(=O)c12 ... 31.1
N#CCN(Cc1ccccc1)[C@H]1CCC[C@]1(O)/C=C/c1ccc2c(c1)OCO2 ... 33.4
C=C1C(=O)O[C@H]2[C@H]1CC/C(COC(=O)/C=C/c1cccnc1)=C\CC[C@@]1(C)O[C@@H]21 ... 17.1

Alright, here's another compound for you.
Find the measured TGI of COC(=O)C1=C(O)C(C(=O)OC)[C@]2(O)[C@H](C(=O)OC)[C@H]1C[C@@H](c1ccc(O)cc1)[C@H]2C(=O)OC (some centres not stated) and report it.
46.5

Data credit: PubChem BioAssay (NCI)
